Reference for the values: paper PMC10244618

B1: NF2 (merlin) isoform 7, human, full length (507 aa, lacks exons 2-3 = isoform-1 residues 39-121; exon-16 C-terminus), P35240-4 (parent)
chain: MAGAIASRMSFSSLKRKQPKTFTVRIVTMDAEMEFNCEVKKQILDEKIYCPPEASVLLASYAVQAKYGDYDPSVHKRGFLAQEELLPKRVINLYQMTPEMWEERITAWYAEHRGRARDEAEMEYLKIAQDLEMYGVNYFAIRNKKGTELLLGVDALGLHIYDPENRLTPKISFPWNEIRNISYSDKEFTIKPLDKKIDVFKFNSSKLRVNKLILQLCIGNHDLFMRRRKADSLEVQQMKAQAREEKARKQMERQRLAREKQMREEAERTRDELERRLLQMKEEATMANEALMRSEETADLLAEKAQITEEEAKLLAQKAAEAEQEMQRIKATAIRTEEEKRLMEQKVLEAEVLALKMAEESERRAKEADQLKQDLQEAREAERRAKQKLLEIATKPTYPPMNPIPAPLPPDIPSFNLIGDSLSFDFKDTDMKRLSMEIEKEKVEYMEKSKHLQEQLNELKTEIEALKLKERETALDILHNENSDRGGSSKHNTIKKPQAQGRRPICI

Variants of: B1
Assay: reverse yeast two-hybrid deep mutational scan (rY2H-seq): NF2 isoform 7 mutant library as bait mated with wild-type prey strains; selection on medium lacking adenine for non-interacting pairs; NextSeq paired-end sequencing; enrichment vs …
Settings: with EMILIN1 (elastin microfibril interfacer 1), Q9Y6C2; yeast diploids after mating (RBait_S3 x RPrey_S3), 30 °C, selection for reporter genes on NB agar; human tyrosine kinase ABL2 co-expressed as the active kinase …; HIGHER = WEAKER BINDING (the opposite of display enrichments): higher = stronger loss of interaction: reverse Y2H selects yeast in which bait and prey do NOT interact (growth without adenine), so a …; hits-only table; scale: rY2H score; numbering: uniprot, sequence starts at 1
endpoint: enrichment

Field: example entries. Status: answers known.
Per the records, this variant ( "A247K" ) has enrichment equal to 4.58

Recorded result, "L348E" , enrichment: 2.19

enrichment for "W175A" is 4.36

1 = P174R
2 = Y161W
Out of 1 and 2 , name the one with the higher enrichment. Write the label of whichever entry you select. 2
